- tested-on: T1, human ADAMTS5 (human, UniProt Q9UNA0 262-622, limits assumed)
- T1 construct: Octet and ELISA used 'recombinant human ADAMTS5'; also called recombinant human ADAMTS5; ADAMTS5 (R&D Systems 2198-AD)
- T1 sequence: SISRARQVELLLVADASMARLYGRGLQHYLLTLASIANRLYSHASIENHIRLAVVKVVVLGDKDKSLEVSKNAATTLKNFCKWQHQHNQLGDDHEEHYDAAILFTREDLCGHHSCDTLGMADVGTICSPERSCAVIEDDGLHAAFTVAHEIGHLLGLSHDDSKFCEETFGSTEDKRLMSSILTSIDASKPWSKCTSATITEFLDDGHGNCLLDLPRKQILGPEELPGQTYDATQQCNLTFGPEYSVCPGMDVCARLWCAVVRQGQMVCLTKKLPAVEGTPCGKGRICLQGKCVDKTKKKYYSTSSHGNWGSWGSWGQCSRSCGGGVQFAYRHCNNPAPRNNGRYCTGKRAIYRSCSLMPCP
- assay-summary: Biacore, mAb down, no avidity
measured-endpoint: Kd (nM)

{"binder": "BPC1623 (antibody, human IgG1, kappa, V domains shown, Chimeric: murine variable domains on human gamma 1 and kappa constant regions; also called 12F4 Chimera; Chimeric 12F4.1H7) VH: EVKLEESGGGLVQPGGSMKLSCTASGFTFSDAWMDWVRQSPEKGLEWVAEIRHKANDHAIFYDESVKGRFTISRDDSKNIVYLQMNSLRPEDTGIYYCTSPFAYWGQGTLVTVSS VL: DIVMTQSQKFMSVTVGDRVSITCKASQSVGTTIVWYQQKPGQSPKLLIYSASNRHTGVPDRFTGSGSGTDFILTINNVQSEDLADYFCQQYTSYPFTFGSGTKLEIKR", "reading": 0.051}
{"binder": "BPC1634 (antibody, human IgG1, kappa, V domains shown, Humanized, human gamma 1 / kappa; also called 7B4 H0L0; Humanized 7B4.1E11 H0L0) VH: EVQLVESGGGLVQPGGSLRLSCAASGFTFSDAWMDWVRQAPGKGLEWVAEIRNKANNHARHYAESVKGRFTISRDNAKNSLYLQMNSLRAEDTAVYYCARTYYYGSSYGYCDVWGQGTLVTVSS VL: DIQMTQSPSSLSASVGDRVTITCRTSENIYSYLAWYQQKPGKAPKLLIYNAKTLAEGVPSRFSGSGSGTDFTLTISSLQPEDFATYYCQHHYGTPWTFGQGTKLEIKR", "reading": 0.869}
{"binder": "BPC1622 (antibody, human IgG1, kappa, V domains shown, Chimeric: murine variable domains on human gamma 1 and kappa constant regions; also called 7B4 Chimera; Chimeric 7B4.1E11) VH: EVKLEESGGGLVQPGGSMKLSCAASGFTSSDAWMDWVRQSPEKGLEWVAEIRNKANNHARHYAESVKGRFTISRDDSKSSVYLQMNSLRAEDSGIYYCTRTYYYGSSYGYCDVWGTGTLVTVSS VL: DIQMTQSPASLSASVGETVTITCRTSENIYSYLAWYQQKQGKSPQLLVYNAKTLAEGVPSRFSGSGSGTQFSLKINSLQPEDFGSYSCQHHYGTPWTFGGGTKLEIKR", "reading": 0.473}
{"binder": "12F4.1H7 (antibody, IgG2, V domains shown, also called Murine 12F4.1H7) VH: EVKLEESGGGLVQPGGSMKLSCTASGFTFSDAWMDWVRQSPEKGLEWVAEIRHKANDHAIFYDESVKGRFTISRDDSKNIVYLQMNSLRPEDTGIYYCTSPFAYWGQGTLVTVSA VL: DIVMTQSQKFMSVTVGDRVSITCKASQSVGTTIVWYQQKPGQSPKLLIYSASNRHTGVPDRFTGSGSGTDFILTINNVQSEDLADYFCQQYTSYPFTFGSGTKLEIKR", "reading": 0.067}
{"binder": "7B4.1E11 (antibody, IgG1, V domains shown, also called Murine 7B4.1E11) VH: EVKLEESGGGLVQPGGSMKLSCAASGFTSSDAWMDWVRQSPEKGLEWVAEIRNKANNHARHYAESVKGRFTISRDDSKSSVYLQMNSLRAEDSGIYYCTRTYYYGSSYGYCDVWGTGTTVTVSS VL: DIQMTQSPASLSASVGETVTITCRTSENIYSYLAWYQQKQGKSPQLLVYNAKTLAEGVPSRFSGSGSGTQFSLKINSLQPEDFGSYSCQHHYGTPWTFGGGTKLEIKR", "reading": 0.483}

# credit: patent US20120095193A1
